All figures here come from PubChem BioAssay (NCI).

# Test system: KM12 colon
# assay-name: NCI tumour cell line growth inhibition, 48 h; in the data active = GI50 below about 0.43 µM; inactive = the rest
Returns: one label drawn from active, inactive

Examples with answers:
>  <compound>
O=[N+]([O-])c1ccc2[nH]cc(-c3c4ccsc4cc4[nH]c5ccc([N+](=O)[O-])cc5c34)c2c1

>  <label>
inactive

$$$$
>  <compound>
CCCCCCC/C=C/[C@H]1O[C@]23C(=O)C[C@@]4(C[C@@H](OC5OC(CO)C(O)C(O)C5O)C[C@@H]4[C@H]2C=C1C)OC3=O (stereo not given in full)

>  <label>
inactive

$$$$
>  <compound>
COc1cc(-c2cnn(C)c2)ccc1Nc1ncc2ccnc(N[C@@H](C)C(C)(C)C)c2n1

>  <label>
inactive

$$$$
>  <compound>
CN1CCN(Cc2ccc(NC(=O)c3cncc(C#Cc4cnc(N)c5ccc(F)cc45)c3)cc2C(F)(F)F)CC1

>  <label>
active

$$$$
>  <compound>
O=c1ccn(C2OC(CO)C(O)C2O)c(=O)[nH]1 (stereo not given)

>  <label>
inactive

$$$$
>  <compound>
COc1cc(-c2nc3ccc(C)cc3[nH]2)ccc1OCC(=O)N=Nc1c(O)[nH]c2ccccc12

>  <label>
inactive

$$$$

Consider now this further compound.
How did this test come out for C=CC(=O)N1CCCC(n2nc(-c3ccc(Oc4ccccc4)cc3)c3c(N)ncnc32)C1 (stereo not given) ?
inactive

====

# System: SF-295 CNS
# assay-name: NCI tumour cell line growth inhibition, 48 h
Where a SMILES comes first, the peptide text is derived from it. [ ]: non-standard residue; d: D form. The star is where a group is joined. Cbz = O=C(OCc1ccccc1)*; Boc = CC(C)(C)OC(=O)*; Aib = CC(C)(N)C(=O)O; OBn = c1ccc(CO*)cc1; OtBu = CC(C)(C)O*; βAla = NCCC(=O)O
readout: TGI

>  <molecule>
C=CCc1cc2cccc(OC)c2oc1=O

>  <TGI>
> 100 µM

$$$$
>  <molecule>
O=C1OS2(OCc3cccc4cccc2c34)c2ccccc21 (configuration not stated)

>  <TGI>
> 100 µM

$$$$
>  <molecule>
COc1cc(/C=C/c2cc(C(F)(F)F)[nH]c(=O)n2)ccc1OCc1ccccc1F

>  <TGI>
22 µM

$$$$
>  <molecule>
CC(C)(C)OC(=O)CC(NC(=O)OC(C)(C)C)C(=O)NC(CCCCNC(=O)OCc1ccccc1)C(=O)NC(C)(C)C(=O)NCCC(=O)OCc1ccccc1 (configuration not stated) (Boc-D(OtBu)K(Cbz)[Aib][βAla]-OBn; configuration not given here)

>  <TGI>
> 100 µM

$$$$
>  <molecule>
COc1ccc(/C=C/c2cc(OC)c(OC)c(OC)c2)cc1NC(=O)/C=C/c1ccc(F)cc1

>  <TGI>
64.4 µM

$$$$

Memo: `O=C(Nc1cccc(-c2cn3ccccc3n2)c1)c1ccncc1` , reported TGI: > 100 µM

Memo: O=C(C(O)c1cn(Cc2ccccc2)c2ccccc12)N1CCCCC1 (configuration not stated) , reported TGI: > 100 µM

====

# Tested on: SN12C renal
# assay-name: NCI tumour cell line growth inhibition, 48 h
readout: GI50

Guide cases for GI50, answers given:
>  <compound>
CC(=O)Oc1cc(C)ccc1[C@]1(C)CC[C@H](C)/C1=C\Br

>  <reported>
9.24 µM

$$$$
>  <compound>
C[CH2][Sn]1([CH2]C)[O]C(=O)[O][Sn]([CH2]C)([CH2]C)[O]1

>  <reported>
> 63.4 µM

$$$$
>  <compound>
CCOc1ccc(/C=C/C(=O)c2ccccc2)cc1

>  <reported>
18.3 µM

$$$$
>  <compound>
O=C(Nc1ccccc1C(F)(F)F)c1cccc(NC2=C(Cl)C(=O)N(Cc3ccccc3)C2=O)c1

>  <reported>
7.49 µM

$$$$
>  <compound>
CC1=CSC2=NC(c3ccc(Cl)c(Cl)c3)=CC(c3ccc(Cl)cc3)N12 (stereo not drawn)

>  <reported>
> 100 µM

$$$$

Memo: `CN(C)CCNc1nc2ccccc2c2c1c1c(n2Cc2ccccc2)-c2ccccc2C1=O` , reported GI50: 12.6 µM

Memo: `O=C(Nc1ccc(Cl)cc1)Nc1ccc(Cl)c(Cl)c1` , reported GI50: 3.42 µM

Memo: `CC1(C)C=CC[C@]2(C)[C@H]3CC[C@@H]4[C@H]5[C@H](C(=O)/C=C/c6cccnc6)CC[C@]5(CO)CC[C@@]4(C)[C@]3(C)CC[C@@H]12` , reported GI50: 1.07 µM

Memo: `CN1CCN(Cc2ccc(NC(=O)c3cncc(C#Cc4cnc(N)c5ccc(F)cc45)c3)cc2C(F)(F)F)CC1` , reported GI50: 1.2 µM

Memo: `COc1cc2c(cc1C)NC(=O)/C2=C\c1cc(OC)c(OC)c(OC)c1` , reported GI50: > 100 µM
